- Tested on: ApoB-100-associated lipoproteins
- Assay: Inhibition of the release of ApoB-100-associated lipoproteins from hepatic cells (HepG2), LDL immunoassay
- Format: cell-based, human
- Condition set: concentration at which adsorption of light (450 nm) is inhibited by 50% compared with solvent control
So basically: is IC50 under 40 nM? Then label 1. Not under? Then label 0.

INSERT INTO results (compound, assigned_class) VALUES
  ('O=C(NC(CO)c1ccccc1)C(c1ccc(Cn2c(-c3ccccc3)cc3ccccc32)cc1)C1CCCC1 (single isomer, unassigned) [Example 14]', 'label 0'),
  ('O=C(NC(CO)c1ccccc1)C(c1ccc(Cn2ccc3ccc(Cl)cc32)cc1)C1CCCC1 (single isomer, unassigned) [Example 35]', 'label 0'),
  ('CCOC(=O)c1cc2cc(OC)ccc2n1Cc1ccc(C(C(=O)NC(CO)c2ccccc2)C2CCCC2)cc1 (mixture of isomers) [Example 23]', 'label 1'),
  ('CCOC(=O)c1cc2ccccc2n1Cc1ccc(C(C(=O)NC(CO)c2ccccc2)C2CCCCCC2)cc1 (single isomer, unassigned) [Example 22]', 'label 1'),
  ('Cc1c(C)n(Cc2ccc(C(C(=O)NC(CO)c3ccccc3)C3CCCC3)cc2)c2ccccc12 (single isomer, unassigned) [Example 6]', 'label 1'),
  ('CCOC(=O)c1cc2cc(Cl)ccc2n1Cc1ccc(C(C(=O)NC(CO)c2ccccc2)C2CCCC2)cc1 (single isomer, unassigned) [Example 27]', 'label 1');
